target: Mannose-6-phosphate isomerase (Homo sapiens) (UniProt P34949); test: inhibitors of human PMI, primary screen, biochemical, fluorescence intensity, coupled assay (AID 1209); conditions: purified PMI enzyme, at 20 µM;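 also: plate controls were DMSO vehicle for no effect and wells lacking substrate for full effect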
Sequence (P34949 whole entry, looked up): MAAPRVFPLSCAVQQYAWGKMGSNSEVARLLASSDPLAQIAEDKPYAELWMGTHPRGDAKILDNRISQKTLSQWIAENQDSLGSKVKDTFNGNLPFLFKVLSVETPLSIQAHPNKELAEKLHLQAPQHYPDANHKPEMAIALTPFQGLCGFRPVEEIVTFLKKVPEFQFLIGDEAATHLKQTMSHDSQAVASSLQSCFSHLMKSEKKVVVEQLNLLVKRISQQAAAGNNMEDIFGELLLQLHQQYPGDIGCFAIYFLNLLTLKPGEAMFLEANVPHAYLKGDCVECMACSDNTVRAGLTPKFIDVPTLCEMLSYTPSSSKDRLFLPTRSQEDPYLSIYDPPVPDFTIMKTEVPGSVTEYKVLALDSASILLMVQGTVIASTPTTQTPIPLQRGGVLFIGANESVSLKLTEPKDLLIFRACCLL
The whole screen tested about 190,000 compounds, of which about 810 (0.43%) were called active. Rule as the data show it: active = inhibition above about 50%; inactive = the rest. The sample holds actives, similar compounds and a random draw of the others, so the mix is not that of the screen.
Write down the outcome that applies. Available outcomes: active, inactive

Previously resolved entries follow.
COc1ccccc1/C=N/Nc1cc(N(C)C)nc(N(C)C)n1    active
Cc1cc(N/N=C/c2ccc(Cl)cc2)nc(NCc2ccccc2)n1    inactive
Cc1ccccc1CNC(=O)Cc1cccs1    inactive

# input Could you check what this test reported for CN(C)c1cc(N/N=C\c2ccccc2)nc(N(C)C)n1 ?
# output active

# input What did the test return for CN1C(=O)/C(=C/C=C2/CCCN2C)N(C)C1=S ?
# output inactive

###

target: Mannose-6-phosphate isomerase (Homo sapiens); test: inhibitors of human PMI, primary screen, biochemical, fluorescence intensity, coupled assay (AID 1209); conditions: purified PMI enzyme, at 20 µM, stronger effect = higher value;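 also: plate controls were DMSO vehicle for no effect and wells lacking substrate for full effect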
In all, about 190,000 compounds went through this assay and about 810 (0.43%) were called active. The full list was thinned out, with actives kept by preference.
readout_label: inhibition

C=C1N(C)c2cc([N+](=O)[O-])c(N)cc2C1(C)C    94% (active)
CN1CCc2nc(SCC(=O)Nc3ccc(OC(F)(F)F)cc3)c(C#N)c(-c3cccs3)c2C1    15.7% (inactive)
CCN(CC)Cc1cc(NC2=NS(=O)(=O)c3ccccc32)ccc1OC(=O)c1ccccc1    -5.8% (inactive)
Cc1cccc(CSc2nc(N)c(C#N)c(-c3cccs3)c2C#N)c1    6.6% (inactive)

Okay, next one:
The measured inhibition associated with CCOc1ccc(CCNC(=O)c2ccc(N3CCCC3=O)cc2)cc1OCC reads 1.3% (inactive)

###

target: Mannose-6-phosphate isomerase (Homo sapiens) (UniProt P34949); test: inhibitors of human PMI, primary screen, biochemical, fluorescence intensity, coupled assay (AID 1209); conditions: purified PMI enzyme, at 20 µM;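 also: plate controls were DMSO vehicle for no effect and wells lacking substrate for full effect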
In all, about 190,000 compounds went through this assay and about 810 (0.43%) were called active. Cut-off read from the data, not from the text of the source: active = inhibition above about 50%; inactive = the rest. The sample holds actives, similar compounds and a random draw of the others, so the mix is not that of the screen.
One label from this list, please: active, inactive

Answered examples (3):
O=C(COc1ccccc1)NCC(=O)Nc1ccc(S(=O)(=O)NCc2ccco2)cc1    inactive
COc1cc(C)c(NC(c2ccccc2)c2ccccc2)cc1OC    inactive
CCCN1CCCc2ccccc21    inactive

# input State the result this test recorded for O=C(c1cn[nH]c1)c1cc(F)ccc1O .
# output inactive

# input Hi, sorry to bother you, what did the test record for COc1ccc(C(c2sc3nc(C)nn3c2O)N2CCCCC2)cc1 (centres undefined) ?
# output inactive

###

target: Mannose-6-phosphate isomerase (Homo sapiens); assay: inhibitors of human PMI, primary screen, biochemical, fluorescence intensity, coupled assay (AID 1209); details: purified PMI enzyme, at 20 µM, stronger effect = higher value;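 also: plate controls were DMSO vehicle for no effect and wells lacking substrate for full effect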
Among all 190,000 compounds or so, about 810 (0.43%) were called active. For the sample, actives were picked, then their nearest neighbours and some compounds at random.
readout_label: inhibition (%)
API: value field is a number in %; no unit string.

These recorded examples may help you get a feel for the data.
COc1cc(/C=C2\SC(=S)NC2=O)ccc1OS(=O)(=O)c1ccccc1    29.8
COc1ccc(/C=N/NC(=O)c2nn(-c3ccc(Cl)cc3)c(=O)c3c(N)scc23)cc1    50.7
CCOc1cc(/C=C2\C(=O)N(Cc3ccco3)C(C)=C2C(=O)OC)ccc1O    27.7
CCOC(=O)c1nn(-c2ccc(C)cc2)c(=O)c2c(N)scc12    39.4
CCOC(=O)c1c(N)sc(C(N)=O)c1C    -5.6
CCN1CCN(CCCNC(=O)C(=O)c2c(C)[nH]c3ccccc23)CC1    -6.7

inhibition for Cn1c(C(C(=O)NCC2CCCO2)N(CCc2ccccc2)C(=O)Cn2nnc3ccccc32)nc2ccccc21 (stereo not given) is 2.6

Notebook: O=C1OC(Nc2cc(Br)cc3cccnc23)c2ccccc21 (stereo not given) , inhibition read as 14.2

Sample CSc1ccc(-c2nc(O)c3cnccn23)cc1 ; inhibition observed: -16.4

Given item COC(=O)C1=C(C)N(Cc2ccco2)C(=O)/C1=C\c1ccc(N(C)C)cc1 , the value recorded as its inhibition is 63.9
